Please go through the items and note down their inhibition.
target_or_test_system: Glucose transporter (Leishmania mexicana)
protocol_notes: ST_JUDE_LEISH: Cytotoxicity at 2uM final concentration against transgenic Leishmania Mexicana promastigotes LmGT2 that are glucose transport deficient and complemented with the L. Mexicana glucose transporter 2. Activity is measured by DNA content using SYBR green in vitro
Type: functional
// units = %; emit number, no label

Which inhibition value is on record for COC(=O)c1cccc(CNCc2ccc(-c3cccc(-c4nc5cccc(C)c5[nH]4)c3)cc2)c1 ?
-2.21

Proceed to Cc1cccc2[nH]c(-c3cc(-c4cn[nH]c4)cnc3N)nc12
2.33

And for Nc1ccc2[nH]cc(C3CCN(CCC4CCN(C(=O)/C=C/c5ccc(Cl)c(Cl)c5)CC4)CC3)c2n1 ?
-0.02

Entry Cc1cc(N2CCN(CC3CCCCC3)CC2)nc(Nc2ccc(Br)cc2)n1 please
0.54

Try CCc1c(C)c2ccc3c(c2oc1=O)CN(CCc1ccc(F)cc1)CO3 next.
5.28

###

Task for the reader: assign each of the following compounds its reported inhibition.
target_or_test_system: Hexose transporter 1 (Plasmodium falciparum) (UniProt O97467)
protocol_notes: ST_JUDE_LEISH: Cytotoxicity at 2uM final concentration against transgenic Leishmania Mexicana promastigotes LmPfHT that are glucose transport deficient and complemented with the Plasmodium falciparum hexose transporter. Activity is measured by DNA content using SYBR green in vitro
Format: functional
Write the answer as a number in %, unit excluded.

Which inhibition is listed for Cc1cccc2nc(-c3ccc(-c4cccc(NC(=O)CCc5c[nH]cn5)c4)s3)[nH]c12 ?
2.05

Now try CCN(CC)CCCC(C)Nc1c(-c2ccc(OC)cc2)cnc2ccccc12 (centres undefined) .
3.79

Try CCOc1ccccc1CNc1nccc(NCc2ccccc2OC)n1 next.
4.16

How about this compound: C=C(C)CSc1nc2c(c(=O)n1CCc1ccccc1)C1(CCCC1)Cc1ccccc1-2
5.36

Please give the result for CCN(C1CCCCC1)S(=O)(=O)c1ccc(OC)c(N2CCN(C(=O)C(Cl)(Cl)Cl)CC2)c1 too.
-2.46

Now give it for CC(=O)c1ccc2c(c1)CCN(CCC1CCC(NC(=O)c3cc4ccccc4[nH]3)CC1)CC2 (centres undefined) too.
-0.31

Please give the result for Cc1cccc(-c2ccc(NC(=O)Nc3ccc4nccc(N5CCN(C)CC5)c4c3)cc2C)n1 too.
5.32

Next record, please: C=CCOC(=O)N1CCC(CNCc2cccc(-c3cccc(-c4nc5cc(F)ccc5[nH]4)c3)c2)C1 (centres undefined)
0.9

For CC(C)C[C@H](NC(=O)c1ccc(F)cc1)C(=O)N[C@H](/C=N/NC(=O)c1ccccc1)CCc1ccccc1 then?
6.16

###

target_or_test_system: Hexose transporter 1 (Plasmodium falciparum) (UniProt O97467)
protocol_notes: ST_JUDE_LEISH: Cytotoxicity at 2uM final concentration against transgenic Leishmania Mexicana promastigotes LmPfHT that are glucose transport deficient and complemented with the Plasmodium falciparum hexose transporter. Activity is measured by DNA content using SYBR green in vitro
Assay type: functional
Kindly state inhibition for each of the entries shown.

Notebook: pull reported inhibition for Hexose transporter 1 (Plasmodium falciparum) (UniProt O97467), entry O=C(/C=C/c1ccc(C(F)(F)F)cc1)NCCCCCN1CCN(C(=O)Nc2ccc(Cl)cc2)CC1
3.09%

// repeat for COc1c(C2CCN(CCCCNC(=O)c3ccc(-c4ccc(C#N)cc4)nc3)CC2)ccc2c1CCCC2 and report
2.03%

For O=C(Nc1cccc(-c2ccc(-c3nc4cc(F)ccc4[nH]3)s2)c1)c1ccncc1 then?
5.83%

Continue with Oc1c(CN2CCCC(C(F)(F)F)C2)cc(Cl)c2ccccc12 (centres undefined)
2.27%

Would you mind doing COc1cc(C(C)C)ccc1N1CCN(CCCCNC(=O)c2ccc(NC(=O)c3ccc(Cl)cc3)cc2)CC1 as well?
1.59%

Subsequent entry: O=S(=O)(c1cc(Cl)c(Cl)cc1Cl)N1CCCCC(c2ccc(C(F)(F)F)cc2)=N1
0.43%

Next compound: Nc1c2c(nc3ccc(NC(=O)CCCCCCc4ccccc4)cc13)CCCC2
-2.24%

Try this compound too: CCc1cn2c3c(cc(C(=O)N[C@@H](Cc4ccccc4)[C@H](O)CNC4CC4)cc13)N(CC)S(=O)(=O)CC2
-0.31%

Now the compound CC(C)(C)c1cc(C(=O)N2CCN(c3cnccn3)CC2)n(Cc2ccccc2)n1
4.68%
